- tested.target: T1, human CD25 on cells (human, UniProt P01589 22-272)
- T1 sequence (looked up): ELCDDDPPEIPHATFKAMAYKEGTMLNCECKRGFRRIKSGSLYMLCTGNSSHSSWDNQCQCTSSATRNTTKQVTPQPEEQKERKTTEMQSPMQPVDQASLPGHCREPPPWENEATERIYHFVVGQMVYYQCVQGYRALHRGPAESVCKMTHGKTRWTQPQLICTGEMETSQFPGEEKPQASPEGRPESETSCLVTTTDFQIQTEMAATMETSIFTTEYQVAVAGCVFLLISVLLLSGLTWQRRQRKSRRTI
- method.notes: cell-based or functional assay
endpoint: PBMC (fold improvement in inhibition of IL2-induced PHA blast proliferation) (fold)
I only need the number, in fold, no unit after it.

Lab note: Variant C38 (antibody, name in Kabat numbering, V domains shown, Isotype as printed: G2M3.QL) VH: QVQLVQSGAEVKKPGSSVKVSCKASGYTFTSYRMHWVRQAPGQGLEWMGYISPRKGYTEYNQKFKDKATITADESTNTAYMELSSLRSEDTAVYYCARGGGVFDYWGQGTLVTVSS VL: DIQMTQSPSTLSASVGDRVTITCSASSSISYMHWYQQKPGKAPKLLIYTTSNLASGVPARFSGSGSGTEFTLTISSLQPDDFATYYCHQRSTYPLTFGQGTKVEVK gave PBMC (fold improvement in inhibition of IL2-induced PHA blast proliferation) of 5.8
